Experiment: Intrinsic dissolution rate from controlled suspensions (SIDR), μDiss Profiler
Format: physicochemical
Settings: suspension (S), FeSSIF-V2 pH 5.8, 37 °C, 100 rpm, mean ± SD
Procedure: Controlled suspensions of the APIs were prepared by tip ultrasonication in suspension media. […] The freshly prepared suspension was diluted (100 µL in 1 mL MilliQ water) and immediately used for determination of hydrodynamic particle size by dynamic light scattering (DLS; Litesizer 500, Anton Paar GmbH, Graz, Austria) at 25 °C. […] In case of bimodal particle size distributions, an intensity peak weighted average particle size was calculated. […]
Measurement type: IDRFeSSIF-V2 (μg/min/cm^2)

                                   compound  measurement_type  experimental_result
0  CCOC(=O)C1=C(C)NC(C)=C(C(=O)OC)C1c1cccc(Cl)c1Cl (stereo not shown)      IDRFeSSIF-V2                  1.5
1  COc1ccccc1OCCNCC(O)COc1cccc2[nH]c3ccccc3c12 (stereo not shown)      IDRFeSSIF-V2                 13.6
2  COc1ccc2c(c1OC)C(=O)O[C@@H]2[C@H]1c2c(cc3c(c2OC)OCO3)CCN1C      IDRFeSSIF-V2                  5.2

A: Cc1cccc(Nc2ccccc2C(=O)O)c1C
B: Cc1c(Cl)cccc1Nc1ccccc1C(=O)O
C: CC(C)OC(=O)C(C)(C)Oc1ccc(C(=O)c2ccc(Cl)cc2)cc1 [Fenofibrate]
D: OCCN(CCO)c1nc(N2CCCCC2)c2nc(N(CCO)CCO)nc(N3CCCCC3)c2n1
Sort entries by IDRFeSSIF-V2 from minimum to maximum value. Answer by listing the labels in the order asked for.
D, C, B, A
(D: 1.7 μg/min/cm^2, C: 2.7 μg/min/cm^2, B: 4.8 μg/min/cm^2, A: 7.9 μg/min/cm^2)
